system name: LXRβ (Homo sapiens, UniProt P55055)
Construct: Co-transfection expression plasmids, comprising full-length LXRα (pCMX-h LXRα[…] or LXRβ (pCMX-hLXRβ))
assay procedure: Co-transfection assay (LXRE luciferase reporter), LXRβ
stated conditions: CV-1 cells transfected with pCMX-hLXRβ and LXREx1-Tk-Luciferase; 20 hours incubation
Experimental: To measure the ability of compounds to activate or inhibit the transcriptional activity of LXR in a cell based assay, the co-transfection assay was used. It has been shown that LXR functions as a heterodimer with RXR. […] Treatment of transfected cells with an LXR agonist increases the transcriptional activity of LXR, which is measured by an increase in luciferase activity. […]
assay metric: pEC50
Answers are plain numbers, as −log10 of the molar value.

smiles representation: Cc1nc(-c2cc(-c3cc(F)c(CO)c(S(C)(=O)=O)c3)ccc2-n2cc(C(F)(F)F)nc2C)c(-c2cc(F)cc(Cl)c2)o1
test result: 7.35
//
smiles representation: Cc1ccc(-c2cnnn2-c2cc(-c3cccc(S(C)(=O)=O)c3)ccc2-n2cc(C(F)(F)F)nc2C)cc1
test result: 6.77
//
smiles representation: CCc1nc(-c2cc(-c3cc(F)c(CO)c(S(C)(=O)=O)c3)ccc2-n2cc(C(F)(F)F)nc2C)c(-c2ccc3c(c2)OC(F)(F)O3)o1
test result: 7.52
//
smiles representation: Cc1nc(C(F)F)c(C)n1-c1ccc(-c2cc(F)c(CO)c(S(C)(=O)=O)c2)cc1-n1nncc1-c1ccc(Cl)cc1
test result: 5.77
//
smiles representation: Cc1nc(-c2cc(-c3cccc(S(C)(=O)=O)c3)ccc2-n2cc(CO)nc2C)c(-c2ccc3c(c2)OC(F)(F)O3)o1
test result: 5.94

Here is another compound to look at.
## Input Give the reported pEC50 for Cc1nc(C(F)F)cn1-c1ccc(-c2cccc(S(C)(=O)=O)c2)cc1-c1cnnn1Cc1ccc(Cl)cc1 (system: LXRβ (Homo sapiens, UniProt P55055)).
## Output 6.67

###

system name: LXRβ (Homo sapiens, UniProt P55055)
Construct: Co-transfection expression plasmids, comprising full-length LXRα (pCMX-h LXRα[…] or LXRβ (pCMX-hLXRβ)); expressed in transfected cells; host or cells: CV-1 African Green Monkey Kidney Cells
Sequence (P55055 1-460): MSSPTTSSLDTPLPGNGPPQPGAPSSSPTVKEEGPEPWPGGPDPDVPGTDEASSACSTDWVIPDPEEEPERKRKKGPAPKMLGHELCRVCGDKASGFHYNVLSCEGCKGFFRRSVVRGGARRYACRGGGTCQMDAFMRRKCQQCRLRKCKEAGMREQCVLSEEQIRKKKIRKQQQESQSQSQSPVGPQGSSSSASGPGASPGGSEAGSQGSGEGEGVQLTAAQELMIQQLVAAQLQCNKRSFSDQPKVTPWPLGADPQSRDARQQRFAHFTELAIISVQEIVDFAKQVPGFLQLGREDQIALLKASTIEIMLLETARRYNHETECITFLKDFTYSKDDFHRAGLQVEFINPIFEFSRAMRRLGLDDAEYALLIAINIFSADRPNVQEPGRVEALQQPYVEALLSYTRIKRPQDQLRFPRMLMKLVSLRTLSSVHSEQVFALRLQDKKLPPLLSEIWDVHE
Sequence (P19793 1-462 partner): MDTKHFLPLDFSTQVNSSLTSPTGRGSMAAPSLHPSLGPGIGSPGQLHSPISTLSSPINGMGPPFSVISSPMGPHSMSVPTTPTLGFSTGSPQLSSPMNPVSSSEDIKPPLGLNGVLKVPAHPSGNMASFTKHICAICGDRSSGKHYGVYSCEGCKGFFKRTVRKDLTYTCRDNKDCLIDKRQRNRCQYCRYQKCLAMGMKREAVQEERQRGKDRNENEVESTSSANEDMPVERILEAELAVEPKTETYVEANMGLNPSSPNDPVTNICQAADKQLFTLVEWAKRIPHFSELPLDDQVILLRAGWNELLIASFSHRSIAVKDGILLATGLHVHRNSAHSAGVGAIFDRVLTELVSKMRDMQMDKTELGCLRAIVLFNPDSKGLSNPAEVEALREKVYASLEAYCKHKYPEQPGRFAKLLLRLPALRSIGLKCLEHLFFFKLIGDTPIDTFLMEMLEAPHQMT
assay procedure: Co-transfection assay (LXRE luciferase reporter), LXRβ
Type: cell-based
stated conditions: LXRβ co-transfection; relative to high control 1-(2,4-difluorobenzyl)-2-oxo-6-(4-phenoxyphenyl)-4-(trifluoromethyl)-1,2-dihydropyridine-3-carbonitrile; read-out: % Efficacy
Please provide measured Emax for the entries that follow.
One number for each entry, in %.

smiles representation: Cc1nc(-c2cc(-c3cccc(S(C)(=O)=O)c3)ccc2-n2cc(C(F)(F)F)nc2C)c(-c2ccc(OCC(F)F)c(F)c2)o1
system name: LXRβ (Homo sapiens, UniProt P55055)
assay metric: Emax
quantity unit: %
test result: 71
--
smiles representation: CS(=O)(=O)c1cc(-c2ccc(-n3cc(C(F)(F)F)nc3Cl)c(-n3nncc3-c3ccc(Cl)cc3)c2)cc(F)c1CO
system name: LXRβ (Homo sapiens, UniProt P55055)
assay metric: Emax
quantity unit: %
test result: 98
--
smiles representation: Cc1nc(-c2ccc(Cl)cc2)c(-c2cc(-c3cc(F)c(CO)c(S(C)(=O)=O)c3)ccc2-n2cc(C(F)(F)F)nc2C)o1
system name: LXRβ (Homo sapiens, UniProt P55055)
assay metric: Emax
quantity unit: %
test result: 79
--
smiles representation: Cc1nc(-c2cc(-c3cc(F)c(CO)c(S(C)(=O)=O)c3)ccc2-n2cc(C(F)(F)F)nc2C)c(-c2ccc3c(c2)OCCO3)o1
system name: LXRβ (Homo sapiens, UniProt P55055)
assay metric: Emax
quantity unit: %
test result: 74
--
smiles representation: Cc1nc(C(F)(F)F)cn1-c1ccc(-c2cccc(S(C)(=O)=O)c2)cc1-n1nncc1Cc1ccc(OC(F)(F)F)cc1
system name: LXRβ (Homo sapiens, UniProt P55055)
assay metric: Emax
quantity unit: %
test result: 61

Hello, I would appreciate it if you could give Emax for each entry below.
1. Cc1nc(-c2cc(-c3cccc(S(C)(=O)=O)c3)ccc2-n2cc(C(F)(F)F)nc2C)c(-c2ccc(OC3CCCC3)nc2)o1
2. Cc1nc(-c2cc(-c3cc(F)c(CO)c(S(C)(=O)=O)c3)ccc2-n2cc(C(F)(F)F)nc2C)c(-c2cccc(Cl)n2)o1
3. Cc1nc(C(F)(F)F)c(Cl)n1-c1ccc(-c2cccc(S(C)(=O)=O)c2)cc1-c1cnnn1-c1ccc(Cl)cc1
4. COc1ncc(-c2oc(C)nc2-c2cc(-c3cc(F)c(CO)c(S(C)(=O)=O)c3)ccc2-n2cc(Cl)nc2C)cc1F

## Output
49
63
107
45

###

system name: LXRβ (Homo sapiens, UniProt P55055)
Construct: Co-transfection expression plasmids, comprising full-length LXRα (pCMX-h LXRα[…] or LXRβ (pCMX-hLXRβ)); expressed in transfected cells; host or cells: CV-1 African Green Monkey Kidney Cells
assay procedure: Co-transfection assay (LXRE luciferase reporter), LXRβ
Type: cell-based
stated conditions: LXRβ co-transfection; relative to high control 1-(2,4-difluorobenzyl)-2-oxo-6-(4-phenoxyphenyl)-4-(trifluoromethyl)-1,2-dihydropyridine-3-carbonitrile; read-out: % Efficacy
Label Yes when Emax is at or above 90%; anything below gets No.

compound: CCC(F)(F)c1cn(-c2ccc(-c3cccc(S(C)(=O)=O)c3)cc2-c2ocnc2-c2ccc(OC(F)(F)F)cc2)c(C)n1 [Example 364]
label value: No

## Input // inclusive: Emax at least 90%? input: Cc1nc(C(F)(F)F)cn1-c1ccc(-c2cccc(S(C)(=O)=O)c2)cc1-n1nncc1-c1ccc(OC(F)F)cc1 [Example 65]
## Output No

## Input // inclusive: Emax at least 90%? input: Cc1nc(C(F)F)cn1-c1ccc(-c2cccc(S(=O)(=O)N(C)C)c2)cc1-n1nncc1-c1ccc(OC(F)(F)F)cc1 [Example 155]
## Output Yes

## Input // inclusive: Emax at least 90%? input: Cc1nc(C(F)(F)F)cn1-c1ccc(-c2cccc(S(C)(=O)=O)c2)cc1-c1nc(C(F)(F)F)cn1-c1ccc2c(c1)OC(F)(F)O2 [Example 640]
## Output No

## Input // inclusive: Emax at least 90%? input: CCCc1nc(-c2cc(-c3cccc(S(C)(=O)=O)c3)ccc2-n2cc(C(F)(F)F)nc2C)c(-c2ccc(OC(F)(F)F)cc2)o1 [Example 520]
## Output No

## Input // inclusive: Emax at least 90%? input: Cc1nc(-c2cc(-c3cccc(S(C)(=O)=O)c3)ccc2-n2cc(C(F)(F)F)nc2C)c(-c2ccc(F)cc2F)o1 [Example 453]
## Output No

## Input // inclusive: Emax at least 90%? input: CCC(F)(F)c1cn(-c2ccc(-c3cccc(S(C)(=O)=O)c3)cc2-c2nc(C)oc2-c2ccc(OC(F)(F)F)cc2)c(C)n1 [Example 517]
## Output No

## Input // inclusive: Emax at least 90%? input: Cc1nc(C(F)(F)F)cn1-c1ccc(-c2cccc(S(C)(=O)=O)c2)cc1-c1ocnc1-c1ccc(Cl)cc1 [Example 360]
## Output Yes

## Input // inclusive: Emax at least 90%? input: Cc1nc(-c2cc(-c3cc(F)c(CO)c(S(C)(=O)=O)c3)ccc2-n2cc(C(F)(F)F)nc2C)c(-c2ccc(OC3CCCC3)nc2)o1 [Example 411]
## Output No

## Input // inclusive: Emax at least 90%? input: Cc1nc(C(C)(F)F)cn1-c1ccc(-c2cccc(S(C)(=O)=O)c2)cc1-c1ocnc1-c1ccc(OC(F)(F)F)cc1 [Example 362]
## Output No

## Input // inclusive: Emax at least 90%? input: Cc1nc(-c2cc(-c3cc(F)c(CO)c(S(C)(=O)=O)c3)ccc2-n2cc(C(F)(F)F)nc2C)c(-c2cccnc2Cl)o1 [Example 549]
## Output No

## Input // inclusive: Emax at least 90%? input: Cc1nc(C(=O)NCC(F)(F)F)cn1-c1ccc(-c2cccc(S(C)(=O)=O)c2)cc1-n1nncc1-c1ccc(OC(F)(F)F)cc1 [Example 3]
## Output No

## Input // inclusive: Emax at least 90%? input: Cc1cc(-c2cc(-c3cccc(S(C)(=O)=O)c3)ccc2-n2cc(C(F)(F)F)nc2C)n(-c2ccc3c(c2)OC(F)(F)O3)n1 [Example 304]
## Output Yes

## Input // inclusive: Emax at least 90%? input: Cc1nc(-c2cc(-c3cccc(S(C)(=O)=O)c3)ccc2-n2cc(C(F)(F)F)nc2C)c(-c2ccc(Cl)cc2)o1 [Example 375]
## Output No

## Input // inclusive: Emax at least 90%? input: CS(=O)(=O)c1cccc(-c2cc(Cl)c(-n3cnc(C(F)(F)F)c3)c(-n3nncc3-c3ccc(OC(F)(F)F)cc3)c2)c1 [Example 192]
## Output No

## Input // inclusive: Emax at least 90%? input: Cc1nc(-c2ccc(Cl)cc2Cl)c(-c2cc(-c3ccc(CO)c(S(C)(=O)=O)c3)ccc2-n2cc(C(F)(F)F)nc2C)o1 [Example 614]
## Output Yes

## Input // inclusive: Emax at least 90%? input: Cc1nc(-c2cc(-c3cc(F)c(CO)c(S(C)(=O)=O)c3)ccc2-n2cc(C(F)(F)F)nc2C)c(-c2ccc(OC(F)F)c(OCC3CC3)c2)o1 [Example 383]
## Output No

## Input // inclusive: Emax at least 90%? input: CCS(=O)(=O)c1cccc(-c2ccc(-n3cc(C(C)(F)F)nc3C)c(-n3nncc3-c3ccc(OC(F)(F)F)cc3)c2)c1 [Example 177]
## Output No

## Input // inclusive: Emax at least 90%? input: Cc1nc(-c2cc(-c3cc(F)c(CO)c(S(C)(=O)=O)c3)ccc2-n2cc(C(F)(F)F)nc2C)c(-c2ccc(Cl)c(Cl)c2)o1 [Example 507]
## Output No

## Input // inclusive: Emax at least 90%? input: Cc1nc(-c2ccc3c(c2)OC(F)(F)O3)c(-c2cc(-c3cccc(S(C)(=O)=O)c3)ccc2-n2cc(C(F)(F)F)nc2C)o1 [Example 615]
## Output Yes

## Input // inclusive: Emax at least 90%? input: Cc1nc(-c2cc(-c3cccc(S(C)(=O)=O)c3)ccc2-n2cc(C(F)(F)F)nc2C)c(-c2ccc(Cl)nc2)o1 [Example 550]
## Output No

## Input // inclusive: Emax at least 90%? input: Cc1nc(-c2cc(-c3cccc(S(C)(=O)=O)c3)ccc2-n2cc(C(F)(F)F)nc2C)c(-c2ccc(N3CCCC3=O)cc2)o1 [Example 502]
## Output No
